System: SYK
run conditions: concentration: 1 μM, replicates: in singlicate; n = 1;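 note: KINOMEscan kinase panel screen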
Reported %Inh values for the following molecules.

| molecule | units text | %Inh |
| --- | --- | --- |
| FC(F)(F)c1ccccc1-c1cc(-c2c[nH]nc2-c2ccccn2)ccn1 | % | 25 |
| COc1ccc(-c2coc3ccc(-c4nnc(C)o4)cc23)cc1 | % | 17 |
| COC(=O)C(NC(=O)NC1CCN(c2ccnc(Nc3ccc(F)cc3)n2)C1)c1ccccc1 (stereo not drawn) | % | 21 |
| COc1cccc(CNC(=O)NC2CCN(c3ccnc(Nc4ccc(F)cc4)n3)C2)c1 (stereo not drawn) | % | 18 |
| Cc1ccc(NC(=O)Nc2ccc(Cl)cc2)cc1-c1ccc(C(=O)Nc2ccncc2)cc1 | % | 31 |
| COc1ccc(Nc2nccc(N3CCC(NC(=O)C(C)c4ccc(Cl)cc4)CC3)n2)cc1 (stereo not drawn) | % | 32 |
| COc1ccc(Nc2nccc(N3CCC(NC(=O)C(C)c4ccc(Cl)cc4)C3)n2)cc1 (stereo not drawn) | % | 25 |
| Nc1nccc(-c2c(-c3ccc(F)cc3)ncn2C2CCN(Cc3ccccc3)CC2)n1 | % | 0 |
| O=c1cc(N2CCOCC2)nc2n(Cc3ccccc3F)ccn12 | % | 21 |
| CS(=O)(=O)Cc1ccc(Nc2nccc(-c3c(-c4cccc(NC(=O)C5CCCCC5)c4)nn4ncccc34)n2)cc1 | % | 4 |
| Cc1ccc(-c2nc(Nc3ccncc3)c3ccccc3n2)s1 | % | 5 |
| COc1ccc(CSc2nnc(-c3ccc4nccn4c3)o2)cc1C(F)(F)F | % | 0 |
| Nc1cccc(-c2ccc3c(N)n[nH]c3c2)n1 | % | 0 |
| Cn1cncc1-c1cc2c(Nc3ccc(OCc4ccccc4)cc3)ncnc2cn1 | % | 27 |
| CNc1nc(-c2ccc3c(N)n[nH]c3c2)cc(N2C[C@@H](C(=O)Nc3ccccc3)CC[C@H]2C)n1 | % | 16 |
| Cc1ccc(NC(=O)Nc2ccccc2F)cc1-c1ccc(C(=O)Nc2ccncc2)cc1 | % | 44 |
| CC(=O)c1cccc(NC(=O)NC2CCN(c3ccnc(Nc4ccc(F)cc4)n3)C2)c1 (stereo not drawn) | % | 29 |
| Cc1cccc2c(-c3ccncn3)c(-c3ccc(F)cc3)nn12 | % | 0 |
| COc1ccc(CSc2nnc(-c3ccc4ncsc4c3)o2)cc1C(F)(F)F | % | 0 |
| COc1ccc(Nc2nccc(NCCNC(=O)Nc3cc(C)ccc3C)n2)cc1 | % | 24 |
| COc1cc2ncnc(Nc3cccc(Br)c3)c2cc1OC.Cl | % | 13 |
| Nc1ncnc2occ(-c3ccc4c(c3)CCN4C(=O)Cc3cc(F)ccc3F)c12 | % | 0 |
| O=C(Nc1n[nH]c2nc(-c3cccs3)c(Br)cc12)C1CCCC1 | % | 5 |
| O=C1NC(=O)C(c2ccc(Cl)cc2)=C1Nc1cccc(Cl)c1 | % | 0 |
| CCn1c(-c2c(N)noc2C)nc2cnccc21 | % | 1 |
| CC(C)c1cc(-c2ccc3c(N)n[nH]c3c2)nc(N)n1 | % | 0 |
| c1ccc(-c2ccnc3[nH]ccc23)cc1 | % | 0 |
| Cn1cnc2c(N)ncnc21 | % | 0 |
| CNCc1ccc2nc(NC(=O)c3ccc(C(C)(C)C)cc3)cn2c1 | % | 2 |
| COc1ccc2cc(-c3nc(-c4ccccc4C(C)C)[nH]c3-c3ccncc3)ccc2c1 | % | 10 |
| CN1c2ccc(-c3ccc(C(N)=O)cc3)cc2-c2[nH]ncc2S1(=O)=O | % | 26 |
| CC[C@@H]1CO[C@H](C(=O)Nc2ccccc2)CN1c1cc(-c2ccc3c(N)n[nH]c3c2)nc(NC)n1 | % | 0 |
| O=C(Nc1n[nH]c2cc(-c3ccsc3)ccc12)C1CC1 | % | 13 |
| COc1cccc(NC(=O)Nc2ccc(C)c(-c3ccc(C(=O)Nc4ccncc4)cc3)c2)c1 | % | 40 |
| Cc1ccc(NC(=O)Nc2ccc(Cl)c(C(F)(F)F)c2)cc1-c1ccc(C(=O)Nc2ccncc2)cc1 | % | 13 |
| O=C(Nc1n[nH]c2nc(-c3ccco3)c(Br)cc12)C1CCN(Cc2ccccc2)C1.O=C(O)[C@H](O)[C@@H](O)C(=O)O (stereo not drawn) | % | 0 |

---

Test system: HASPIN
Construct: gene GSG2
run conditions: concentration: 1 μM, replicates: in singlicate; n = 1
Reported %Inh values for the following compounds.

| compound | %Inh, % |
| --- | --- |
| Cc1nccc(-c2c(-c3ccc(F)cc3)ncn2CCCN2CCOCC2)n1.Cl [SB-282975] | 23 |
| COC(=O)C(Cc1ccccc1)NC(=O)NC1CCN(c2ccnc(Nc3ccc(F)cc3)n2)C1 (centres unmarked) [GSK1379714] | 24 |
| Cc1cnc(N)c(/C=C/c2cncc(C(=O)NCCc3ccc(Cl)cc3Cl)c2)c1.Cl [GSK190937] | 29 |
| Cc1ccccc1-c1cc(-c2c[nH]nc2-c2ccccn2)ccn1 [GW680061] | 0 |
| COC(=O)c1cccc(NC(=O)NC2CCN(c3ccnc(Nc4ccc(OC)cc4)n3)C2)c1 (centres unmarked) [GSK1379746] | 0 |

---

Reported %Inh values for the following molecules.
Tested on: CDKL3
run conditions: concentration: 1 μM, replicates: in singlicate; n = 1
measurement kind: %Inh (%)

| molecule | experimental system | units text | test result |
| --- | --- | --- | --- |
| Cc1c(Cn2c(C)c(C)n3c(=O)cc(N4CCOCC4)nc23)cccc1C(F)(F)F | CDKL3 | % | 0 |
| COc1ccc(CSc2nnc(-c3ccc4c(c3)CCO4)o2)cc1 | CDKL3 | % | 0 |
| COC(=O)C(Cc1ccccc1)NC(=O)NC1CCN(c2ccnc(Nc3ccc(F)cc3)n2)C1 (stereo not drawn) | CDKL3 | % | 0 |
| O=C(Nc1n[nH]c2nc(-c3cccs3)c(Br)cc12)C1CCCC1 | CDKL3 | % | 0 |
| COc1cccc(NC(=O)Nc2ccc(C)c(-c3ccc(C(=O)Nc4ccncc4)cc3)c2)c1 | CDKL3 | % | 0 |
| Cn1cncc1C(=O)NC1CCN(c2ccnc(Nc3ccc(F)cc3)n2)C1 (stereo not drawn) | CDKL3 | % | 99.5 |
| Fc1ccc(-c2nc[nH]c2-c2ccncc2)cc1 | CDKL3 | % | 2 |
| Cc1ccccc1Cn1ccn2c(=O)cc(N3CCOCC3)nc12 | CDKL3 | % | 0 |
| CCCCc1nn2ncccc2c1-c1ccnc(NC2CC2)n1 | CDKL3 | % | 0 |

---

Tested on: EPHA2
run conditions: concentration: 1 μM, replicates: in singlicate; n = 1

| compound | units text | %Inh |
| --- | --- | --- |
| Nc1ncnc2occ(-c3ccc4c(c3)CCN4C(=O)Cc3cc(F)ccc3F)c12 [GSK2645446] | % | 0 |
| COc1cccc(NC(=O)Nc2ccc(C)c(-c3ccc(C(=O)Nc4ccncc4)cc3)c2)c1 [GSK1398474] | % | 1 |
| O=c1cc(N2CCOCC2)nc2n(Cc3cccc(Cl)c3Cl)c3ccccc3n12 [GSK2299009] | % | 8 |
| CN1c2ccc(-c3ccc(C(N)=O)cc3)cc2-c2[nH]ncc2S1(=O)=O | % | 0 |
| Cn1cncc1-c1cc2c(Nc3ccc(OCc4ccccc4)cc3)ncnc2cn1 [GW281179] | % | 13 |
| CNc1nc(-c2ccc3c(N)n[nH]c3c2)cc(N2C[C@@H](C(=O)Nc3ccccc3)CC[C@H]2C)n1 [GSK2298859] | % | 0 |
| O=C1NC(=O)C(c2ccc(Cl)cc2)=C1Nc1cccc(Cl)c1 [SB-317651] | % | 8 |
| Fc1ccc(-c2nc3n(c2-c2ccncc2)CCS3)cc1 [GI98581] | % | 12 |
| CNc1cc(-c2ccc3c(N)n[nH]c3c2)nc(N)n1 [GSK2224810] | % | 0 |
| CC(=O)c1c(C)c2cnc(Nc3ccn(C)n3)nc2n(C2CCCC2)c1=O | % | 0 |
| O=C1NC(=O)C(c2ccc(Cl)cc2)=C1Nc1ccc(O)cc1 [SB-340867] | % | 0 |
| COc1ccc(Nc2nccc(NCCNC(=O)Nc3cc(C)ccc3C)n2)cc1 [GSK1379899] | % | 0 |
| CSc1ccc(-c2nc3n(c2-c2ccncc2)CCC3)cc1 [SKF-105561] | % | 0 |
| COc1cccc(C2=C(Nc3cc(Cl)c(O)c(Cl)c3)C(=O)NC2=O)c1 [SB-390767] | % | 19 |
| COc1ccc(CSc2nnc(-c3ccc4c(c3)CCO4)o2)cc1 | % | 0 |
| Fc1ccc(-c2nn3cccc(F)c3c2-c2ccncc2)cc1 [GW475620] | % | 12 |
| COc1ccc2cc(-c3nc(-c4ccccc4C(C)C)[nH]c3-c3ccncc3)ccc2c1 [SB-660566] | % | 0 |
| CCn1c(-c2c(N)noc2C)nc2cnccc21 [SB-737856] | % | 15 |
| Cc1ccc(NC(=O)Nc2ccc(Cl)c(C(F)(F)F)c2)cc1-c1ccc(C(=O)Nc2ccncc2)cc1 [GSK1398470] | % | 17 |
| COc1ccc(CSc2nnc(-c3ccc4ncsc4c3)o2)cc1C(F)(F)F | % | 3 |
| O=C(Nc1n[nH]c2nc(-c3cccs3)c(Br)cc12)C1CCCC1 [SB-743341] | % | 0 |
| Cc1ccc(NC(=O)c2ccc(Cl)cc2)cc1-c1ccc(C(=O)Nc2ccncc2)cc1 [GSK1398467] | % | 9 |
| COc1nccc(-c2c(-c3ccc(F)cc3)ncn2CCCN2CCOCC2)n1 [SB-282852] | % | 0 |
| COC(=O)c1cccc(NC(=O)NC2CCN(c3ccnc(Nc4ccc(OC)cc4)n3)C2)c1 (stereo not drawn) [GSK1379746] | % | 6 |
| Cc1ccc(NC(=O)Nc2ccc(Cl)cc2)cc1-c1ccc(C(=O)Nc2ccncc2)cc1 [GSK1398472] | % | 43 |
| CS(=O)(=O)CCNCc1nc(-c2ccc3ncnc(Nc4ccc(OCc5ccccc5)c(Cl)c4)c3c2)cs1.Cl [GW582764] | % | 10 |
| CC(=O)c1c(C)c2cnc(Nc3ccc(N4CCNCC4)cn3)nc2n(C2CCCC2)c1=O | % | 16 |
| CS(=O)(=O)Cc1ccc(Nc2nccc(-c3c(-c4cccc(NC(=O)C5CCCCC5)c4)nn4ncccc34)n2)cc1 [GSK350559] | % | 51 |
| Cl.Cl.Cl.N#Cc1ccc(CCNc2nccc(-c3cccc(CN4CCNCC4)c3)n2)cc1 [GSK2137462] | % | 8 |
| CC(C)c1cc(-c2ccc3c(N)n[nH]c3c2)nc(N)n1 [GSK2250882] | % | 17 |
| Nc1nccc(-c2c(-c3ccc(F)cc3)ncn2C2CCN(Cc3ccccc3)CC2)n1 [SB-219980] | % | 0 |
| CC(=O)c1cccc(NC(=O)NC2CCN(c3ccnc(Nc4ccc(F)cc4)n3)C2)c1 (stereo not drawn) [GSK1379710] | % | 0 |
| COc1ccc(Nc2nccc(N3CCC(NC(=O)C(C)c4ccc(Cl)cc4)CC3)n2)cc1 (stereo not drawn) [GSK1379812] | % | 7 |
| Cn1cncc1C(=O)NC1CCN(c2ccnc(Nc3ccc(F)cc3)n2)C1 (stereo not drawn) [GSK1379717] | % | 0 |
| Cc1c(Cn2c(C)c(C)n3c(=O)cc(N4CCOCC4)nc23)cccc1C(F)(F)F [GSK2328680] | % | 17 |
| Fc1ccc(-c2nc[nH]c2-c2ccncc2)cc1 [SB-217360] | % | 0 |
